# Assay name: Plasma kinetic study of celastrol with and without Schisandrin A
# Type: in vivo, Sprague Dawley rats
# Cond: male, Sprague Dawley, rat, plasma, po, 1.8 mg/kg, Group5; rats, Schisandrin A 22.0 mg/kg oral 5 min before celastrol 1.8 mg/kg oral; read-out: T1/2 of celastrol (converted)

Compound	half-life / min
CC1=C(O)C(=O)C=C2C1=CC=C1[C@@]2(C)CC[C@@]2(C)[C@@H]3C[C@](C)(C(=O)O)CC[C@]3(C)CC[C@]12C [celastrol]	619

###

# Assay name: Plasma kinetic study of celastrol with and without Schisandrin A
# Format: in vivo, Sprague Dawley rats
# Cond: male, Sprague Dawley, rat, plasma, po, 1.8 mg/kg, Group7; rats, Schisandrin A 88.0 mg/kg oral 5 min before celastrol 1.8 mg/kg oral; read-out: AUC0→t of celastrol
Measurement kind: AUC(0-t) (ng·h/mL)

Compound	Recorded value
CC1=C(O)C(=O)C=C2C1=CC=C1[C@@]2(C)CC[C@@]2(C)[C@@H]3C[C@](C)(C(=O)O)CC[C@]3(C)CC[C@]12C [celastrol]	171

###

# Assay name: Plasma kinetic study of celastrol with and without Schisandrin A
# Assay type: in vivo, Sprague Dawley rats
# Cond: male, Sprague Dawley, rat, plasma, po, 1.8 mg/kg, Group3; rats, Schisandrin A 5.5 mg/kg oral 5 min before celastrol 1.8 mg/kg oral; read-out: MRT0→∞ of celastrol

Query smiles	MRT inf (h)
CC1=C(O)C(=O)C=C2C1=CC=C1[C@@]2(C)CC[C@@]2(C)[C@@H]3C[C@](C)(C(=O)O)CC[C@]3(C)CC[C@]12C	18.8

###

# Assay name: Plasma kinetic study of celastrol with and without Schisandrin A
# Format: in vivo, Sprague Dawley rats
# Cond: male, Sprague Dawley, rat, plasma, po, 1.8 mg/kg, Group4; rats, Schisandrin A 11.0 mg/kg oral 5 min before celastrol 1.8 mg/kg oral; read-out: MRT0→t of celastrol

Query smiles	MRT last
CC1=C(O)C(=O)C=C2C1=CC=C1[C@@]2(C)CC[C@@]2(C)[C@@H]3C[C@](C)(C(=O)O)CC[C@]3(C)CC[C@]12C	12.9 h

###

# Assay name: Plasma kinetic study of celastrol with and without Schisandrin A
# Assay type: in vivo, Sprague Dawley rats
# Cond: male, Sprague Dawley, rat, plasma, po, 1.8 mg/kg, Group5; rats, Schisandrin A 22.0 mg/kg oral 5 min before celastrol 1.8 mg/kg oral; read-out: AUC0→t of celastrol

Query smiles	Unit string	AUC(0-t)
CC1=C(O)C(=O)C=C2C1=CC=C1[C@@]2(C)CC[C@@]2(C)[C@@H]3C[C@](C)(C(=O)O)CC[C@]3(C)CC[C@]12C	ng·h/mL	146

###

# Assay name: Plasma kinetic study of colchicine with and without Schisandrin A
# Type: in vivo
# Cond: male, Sprague Dawley, rat, po, 3 mg/kg, Group4, rats, Schisandrin A 12.6 mg/kg oral 5 min before colchicine 3.0 mg/kg oral
# Description: 42 Male Sprague Dawley rats (weight, 170-210 g) were maintained on a 12-h light/dark cycle with free access to water and lab chow for 10-14 h prior to the experiment. Rats were randomly divided into 7 groups (n=6 each) and groups 2-7 received 0 mg/kg, 6.3 mg/kg, and 12.6 mg/kg, 25.2 mg/kg, 50.4 mg/kg and 63.0 mg/kg of Schisandrin A in 1% CMC-Na (300-800 cps) via oral administration, respectively. […]
Measurement kind: Tmax (min)

Query smiles	Measurement kind	Recorded value
COc1cc2c(c(OC)c1OC)-c1ccc(OC)c(=O)cc1[C@@H](NC(C)=O)CC2	Tmax	11.4
